Reference source for all entries: ChEMBL document CHEMBL1143308

Experiment: Oral bioavailability in rat at 10 mg/kg
Assay type: ADME, organism-based
Settings: in vivo
value type: bioavailability
Include the unit after the number when you answer.

In plain terms, "O=C(Nc1ccc(C(F)(F)F)cc1)N1CCC2(CC1)C(=O)N(c1ccccn1)[C@H]2c1ccccc1" has a documented bioavailability of 45%

---

Field: log10 IC50. Provide a value for each of the molecules that follow.
Biological target: Transient receptor potential cation channel subfamily V member 1 (Homo sapiens)
Assay: Antagonist activity at TRPV1 expressed in HEK293 cells assessed as inhibition of PMA-induced activation by FLIPR assay
Type: functional, cell-based
// units: nM (pre-log); metric: IC50; scale: log10

The reported log10 IC50 of the molecule "CC(C)(C)c1ccc(NC(=O)N2CCC3(CC2)CN(c2ccccc2)C3=O)cc1" was 1.77

Reported log10 IC50 of "CC(C)(C)[C@H]1CC[C@H](NC(=O)N2CCC3(CC2)C(=O)N(c2ccccc2)[C@H]3c2ccccc2)CC1" : 1.51

Lab note: measured log10 IC50 of "CC(C)c1ccc(NC(=O)N2CCC3(CC2)C(=O)N(c2ccccc2)[C@H]3c2ccccc2)cc1" was 1.63

log10 IC50 for O=C(Nc1ccc(C(F)(F)F)cc1)N1CCC2(CC1)C(=O)N(c1ccccc1)C2c1ccccc1 (racemic) is 2.01

Query "O=C(Nc1ccc(C(F)(F)F)cc1)N1CCC2(CC1)C(=O)N(c1ccccn1)[C@H]2c1ccccc1" yields log10 IC50 of 0.93

Input CC(C)c1ccc(NC(=O)N2CCC3(CC2)C(=O)N(c2ccccc2)C3c2ccccc2)cc1 (centres undefined) . Output log10 IC50: 2.05

O=C(Nc1ccc(C(F)(F)F)cn1)N1CCC2(CC1)C(=O)N(c1ccccc1)C2c1ccccc1 (racemic) has a reported log10 IC50 of 2.50

// log10 IC50 value for "CC(C)(C)[C@H]1CC[C@@H](NC(=O)N2CCC3(CC2)C(=O)N(c2ccccc2)[C@H]3c2ccccc2)CC1" : 2.37

For "CC(C)(C)c1ccc(NC(=O)N2CCC3(CC2)C(=O)N(c2ccccc2)[C@H]3c2ccccc2)cc1" the molecule record lists log10 IC50 as 1.08

---

Biological target: Transient receptor potential cation channel subfamily V member 1 (Homo sapiens)
Assay: Antagonist activity at TRPV1 expressed in HEK293 cells assessed as inhibition of capsaicin-induced activation at 10 uM by FLIPR assay
Format: functional, cell-based
Design: scale not given: the % may be the effect or the level left
Would you kindly list Activity for each of these molecules?

Sample "CC(C)(C)c1ccc(NC(=O)N2CCC3(CC2)C(=O)N(c2ccccc2)[C@@H]3c2ccccc2)cc1" ; Activity observed: 8.5%

Record summary for "CC(C)(C)c1ccc(NC(=O)N2CCC3(CC2)CN(c2ccccc2-c2ccccc2)C3=O)cc1" : reported Activity = 73%

Lookup result for "O=C(Nc1ccc(C(F)(F)F)cc1)N1CCC2(CC1)C(=O)N(c1ccccn1)[C@@H]2c1ccccc1" ; measured Activity: 83%

---

Molecular target: Transient receptor potential cation channel subfamily V member 1 (Homo sapiens, UniProt Q8NER1)
Sequence (Q8NER1 whole entry): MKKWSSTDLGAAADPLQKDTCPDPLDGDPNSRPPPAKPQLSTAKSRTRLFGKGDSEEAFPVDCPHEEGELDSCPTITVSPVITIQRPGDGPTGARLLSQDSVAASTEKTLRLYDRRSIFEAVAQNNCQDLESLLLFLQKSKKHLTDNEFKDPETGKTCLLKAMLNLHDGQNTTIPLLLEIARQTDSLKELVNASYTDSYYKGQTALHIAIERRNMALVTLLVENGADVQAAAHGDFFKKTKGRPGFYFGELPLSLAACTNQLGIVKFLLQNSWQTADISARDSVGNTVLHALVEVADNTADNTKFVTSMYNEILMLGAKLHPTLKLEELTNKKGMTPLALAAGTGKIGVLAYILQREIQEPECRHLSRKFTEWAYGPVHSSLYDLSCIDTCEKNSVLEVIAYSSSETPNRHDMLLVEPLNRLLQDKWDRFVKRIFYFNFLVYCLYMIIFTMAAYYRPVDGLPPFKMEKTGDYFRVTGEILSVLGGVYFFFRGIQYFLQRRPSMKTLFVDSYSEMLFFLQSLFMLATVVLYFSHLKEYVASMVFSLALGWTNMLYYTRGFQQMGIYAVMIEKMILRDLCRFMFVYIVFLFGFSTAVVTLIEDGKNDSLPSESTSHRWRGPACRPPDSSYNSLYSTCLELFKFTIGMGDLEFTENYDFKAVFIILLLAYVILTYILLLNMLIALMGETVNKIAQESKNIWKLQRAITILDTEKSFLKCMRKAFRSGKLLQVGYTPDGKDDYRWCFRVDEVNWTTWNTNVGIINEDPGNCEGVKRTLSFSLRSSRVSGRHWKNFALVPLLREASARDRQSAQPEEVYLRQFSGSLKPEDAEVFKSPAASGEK
Assay: Antagonist activity at TRPV1 expressed in HEK293 cells assessed as inhibition of capsaicin-induced activation by FLIPR assay
Assay type: functional, cell-based
I'd be grateful if you could share measured IC50 for these entries.
Your answer is read as nM, so omit the unit and give the number.

# molecule "CC(C)c1ccc(NC(=O)N2CCC3(CC2)C(=O)N(c2ccccc2)[C@H]3c2ccccc2)cc1" ; its IC50 = 81

Per the records, this molecule ( "CC(C)(C)[C@H]1CC[C@@H](NC(=O)N2CCC3(CC2)C(=O)N(c2ccccc2)[C@H]3c2ccccc2)CC1" ) has IC50 equal to 528

Lab book: IC50 of "CC(C)(c1ccccc1)c1ccc(NC(=O)N2CCC3(CC2)C(=O)N(c2ccccc2)[C@H]3c2ccccc2)cc1" noted as 226

The molecule identified as CC(C)c1ccc(NC(=O)N2CCC3(CC2)C(=O)N(c2ccccc2)C3c2ccccc2)cc1 (stereo not given) registered its IC50 at 101

Lab note: measured IC50 of "CC(C)(C)c1ccc(NC(=O)N2CCC3(CC2)CN(c2ccccc2)C3=O)cc1" was 80

Reported IC50 ( O=C(Nc1ccc(C(F)(F)F)cc1)N1CCC2(CC1)C(=O)N(c1ccccc1)C2c1ccccc1 (racemic) ) = 85

The recorded IC50 for entry "O=C(Nc1ccc(C(F)(F)F)cc1)N1CCC2(CC1)C(=O)N(c1ccccn1)[C@H]2c1ccccc1" equals 13

Reported IC50 of "CC(C)(C)c1ccc(NC(=O)N2CCC3(CC2)C(=O)N(c2ccccc2)[C@H]3c2ccccc2)cc1" : 9.4

Documented IC50 of "CC(C)(C)[C@H]1CC[C@H](NC(=O)N2CCC3(CC2)C(=O)N(c2ccccc2)[C@H]3c2ccccc2)CC1" : 49

// field: IC50; key: O=C(Nc1ccc(C(F)(F)F)cn1)N1CCC2(CC1)C(=O)N(c1ccccc1)C2c1ccccc1 (racemic) ; value = 205

---

Experiment: Aqueous solubility of the compound
Assay type: physicochemical
Conditions: buffer
value type: solubility (µM)
Respond with the bare value in µM.

Form field solubility, entry "CC(C)(C)c1ccc(NC(=O)N2CCC3(CC2)C(=O)N(c2ccccc2)[C@H]3c2ccccc2)cc1" : 0.094

Documented solubility of "O=C(Nc1ccc(C(F)(F)F)cc1)N1CCC2(CC1)C(=O)N(c1ccccn1)[C@H]2c1ccccc1" : 0.3

---

Assay: AUC (0 to 6 hrs) in rat at 10 mg/kg, po
Assay type: ADME, organism-based
Parameters: time < 6 hr, dose 10 mg/kg, route oral
Conditions: plasma
Give log10(AUC(0-t) at 6 h) for every item shown.
Quick note: numbers are log10 of AUC(0-t) at 6 h, with ng·h/mL as the unit.

Notebook: "CC(C)(C)c1ccc(NC(=O)N2CCC3(CC2)C(=O)N(c2ccccc2)[C@H]3c2ccccc2)cc1" , log10(AUC(0-t) at 6 h) read as 1.69

# log10(AUC(0-t) at 6 h) (molecule: CC(C)c1ccc(NC(=O)N2CCC3(CC2)C(=O)N(c2ccccc2)C3c2ccccc2)cc1 (stereo not given) ) is 1.64

For "CC(C)c1ccc(NC(=O)N2CCC3(CC2)C(=O)N(c2ccccc2)[C@H]3c2ccccc2)cc1" the molecule record lists log10(AUC(0-t) at 6 h) as 1.28

Reported log10(AUC(0-t) at 6 h) ( O=C(Nc1ccc(C(F)(F)F)cc1)N1CCC2(CC1)C(=O)N(c1ccccc1)C2c1ccccc1 (racemic) ) = 3.22

Sure, the documented log10(AUC(0-t) at 6 h) for "O=C(Nc1ccc(C(F)(F)F)cc1)N1CCC2(CC1)C(=O)N(c1ccccn1)[C@H]2c1ccccc1" is 3.40
